Field: IC50. Provide a value for each of the molecules that follow.
Numeric only. Scale: µM

Request body: readout IC50, system Cholinesterase (Homo sapiens), query O=[N+]([O-])c1cccc(-n2cc(C3(O)CCCCC3)nn2)c1 . Return the value.
585

Request body: readout IC50, system Cholinesterase (Homo sapiens), query CCSc1ccccc1-c1cnc(-c2ccsc2)[nH]1 . Return the value.
0.1

Request body: readout IC50, system Cholinesterase (Homo sapiens), query Brc1ccc(-n2cc(-c3ccccc3)nn2)cc1 . Return the value.
375

Request body: readout IC50, system Cholinesterase (Homo sapiens), query Cc1ccc(C2CC(c3ccccc3O)=Nc3ccccc3S2)cc1 (configuration not stated) . Return the value.
14

Request body: readout IC50, system Cholinesterase (Homo sapiens), query Cc1ccc(C2CC(c3cccc(O)c3)=Nc3ccccc3S2)c(C)c1 (configuration not stated) . Return the value.
19.7

Request body: readout IC50, system Cholinesterase (Homo sapiens), query O=C(On1cc(C2(O)CCCCC2)nn1)c1ccccc1 . Return the value.
248

Request body: readout IC50, system Cholinesterase (Homo sapiens), query Oc1ccc(C2=Nc3ccccc3SC(c3cccc(O)c3)C2)cc1 (configuration not stated) . Return the value.
4.7

Request body: readout IC50, system Cholinesterase (Homo sapiens), query O=[N+]([O-])c1ccc(-n2cc(-c3ccccc3)nn2)cc1 . Return the value.
250

Request body: readout IC50, system Cholinesterase (Homo sapiens), query O=[N+]([O-])c1cccc(-n2cc(-c3ccccc3)nn2)c1 . Return the value.
499

Request body: readout IC50, system Cholinesterase (Homo sapiens), query COc1cccc(/C=C/C(=O)c2ccccc2)c1 . Return the value.
32

Request body: readout IC50, system Cholinesterase (Homo sapiens), query COC(=O)Cc1ccc(-n2cc(C3(O)CCCCC3)nn2)cc1 . Return the value.
568

Request body: readout IC50, system Cholinesterase (Homo sapiens), query Oc1ccc(C2=Nc3ccccc3SC(c3cccs3)C2)cc1 (configuration not stated) . Return the value.
3.97

###

measured_quantity: pIC50
Quick note: pIC50 means taking -log10 of the concentration in moles per liter.

Request body: readout pIC50, system Cholinesterase (Homo sapiens, UniProt P06276), query CCCCCCCCc1ccc(-n2cc(C3(O)CCCCC3)nn2)cc1 . Return the value.
4.36

Request body: readout pIC50, system Cholinesterase (Homo sapiens, UniProt P06276), query Clc1ccc(-n2cc(-c3ccccc3)nn2)cc1 . Return the value.
3.26

Request body: readout pIC50, system Cholinesterase (Homo sapiens, UniProt P06276), query Oc1ccccc1C1=Nc2ccccc2SC(c2ccc(F)cc2)C1 (stereo not given) . Return the value.
4.85

Request body: readout pIC50, system Cholinesterase (Homo sapiens, UniProt P06276), query O=C(/C=C/c1ccc([N+](=O)[O-])cc1)c1ccccc1 . Return the value.
4.49

Request body: readout pIC50, system Cholinesterase (Homo sapiens, UniProt P06276), query COc1cccc(-n2cc(C3(O)CCCCC3)nn2)c1 . Return the value.
4.08

Request body: readout pIC50, system Cholinesterase (Homo sapiens, UniProt P06276), query Nc1ccc(C(=O)/C=C/c2ccccc2Br)cc1 . Return the value.
4.59

Request body: readout pIC50, system Cholinesterase (Homo sapiens, UniProt P06276), query CC(=O)c1ccc(-n2cc(C3(O)CCCCC3)nn2)cc1 . Return the value.
3.35

Request body: readout pIC50, system Cholinesterase (Homo sapiens, UniProt P06276), query CC(=O)c1ccccc1-n1cc(-c2ccccc2)nn1 . Return the value.
3.53

Request body: readout pIC50, system Cholinesterase (Homo sapiens, UniProt P06276), query CC(=O)c1cccc(-n2cc(-c3ccccc3)nn2)c1 . Return the value.
3.35

Request body: readout pIC50, system Cholinesterase (Homo sapiens, UniProt P06276), query O=[N+]([O-])c1ccccc1-n1cc(C2(O)CCCCC2)nn1 . Return the value.
3.48

Request body: readout pIC50, system Cholinesterase (Homo sapiens, UniProt P06276), query O=C(/C=C/c1ccccc1O)c1ccccc1 . Return the value.
3.98

Request body: readout pIC50, system Cholinesterase (Homo sapiens, UniProt P06276), query COC(=O)Cn1cc(C2(O)CCCCC2)nn1 . Return the value.
3.44

Request body: readout pIC50, system Cholinesterase (Homo sapiens, UniProt P06276), query O=C(/C=C/c1ccccc1O)c1ccccc1O . Return the value.
4.89

Request body: readout pIC50, system Cholinesterase (Homo sapiens, UniProt P06276), query O=[N+]([O-])c1ccc(C2CC(c3ccccc3O)=Nc3ccccc3S2)cc1 (stereo not given) . Return the value.
4.24

Request body: readout pIC50, system Cholinesterase (Homo sapiens, UniProt P06276), query CC(=O)c1cccc(-n2cc(C3(O)CCCCC3)nn2)c1 . Return the value.
3.34

Request body: readout pIC50, system Cholinesterase (Homo sapiens, UniProt P06276), query Oc1ccccc1C1=Nc2ccccc2SC(c2ccccc2)C1 (stereo not given) . Return the value.
4.21

Request body: readout pIC50, system Cholinesterase (Homo sapiens, UniProt P06276), query OC1(c2cn(-c3ccccc3Cl)nn2)CCCCC1 . Return the value.
3.37

Request body: readout pIC50, system Cholinesterase (Homo sapiens, UniProt P06276), query CCCCCCCCCCCCCCCCn1cc(C2(O)CCCCC2)nn1 . Return the value.
3.30

Request body: readout pIC50, system Cholinesterase (Homo sapiens, UniProt P06276), query N#Cc1cc([N+](=O)[O-])ccc1-n1cc(C2(O)CCCCC2)nn1 . Return the value.
4.37

Request body: readout pIC50, system Cholinesterase (Homo sapiens, UniProt P06276), query OC1(c2cn(-c3ccc(Br)cc3)nn2)CCCCC1 . Return the value.
3.53

###

- experiment_description: Inhibition of yeast alpha-glucosidase type 3 using p-nitrophenyl-alpha-D-glucopyranoside as substrate preincubated with substrate for 5 mins prior to enzyme challenge for 30 mins by absorbance analysis
- Set-up: species or system Saccharomyces cerevisiae
Field: pIC50. Provide a value for each of the molecules that follow.
Quick note: pIC50 means taking -log10 of the concentration in moles per liter.

Fill in the blank: the reported pIC50 of O=C(/C=C/c1ccc([N+](=O)[O-])cc1)c1ccccc1 is ____.
2.41

Fill in the blank: the reported pIC50 of COc1ccc(C(=O)/C=C/c2ccc(N)cc2)cc1 is ____.
4.69

Fill in the blank: the reported pIC50 of Brc1ccc(-n2cc(-c3ccccc3)nn2)cc1 is ____.
3.39

Fill in the blank: the reported pIC50 of O=[N+]([O-])c1ccc(-n2cc(-c3ccccc3)nn2)cc1 is ____.
3.63

Fill in the blank: the reported pIC50 of Clc1ccc(-n2cc(-c3ccccc3)nn2)cc1 is ____.
3.42

Fill in the blank: the reported pIC50 of COc1ccc(C2CC(c3ccccc3O)=Nc3ccccc3S2)cc1 (stereo unspecified) is ____.
4.92

###

- experiment_description: Inhibition of yeast alpha-glucosidase type 3 using p-nitrophenyl-alpha-D-glucopyranoside as substrate preincubated with substrate for 5 mins prior to enzyme challenge for 30 mins by absorbance analysis
- Parameters: species or system Saccharomyces cerevisiae
measured_quantity: pIC50
Quick note: pIC50 means taking -log10 of the concentration in moles per liter.

Fill in the blank: the reported pIC50 of COC(=O)Cc1ccc(-n2cc(C3(O)CCCCC3)nn2)cc1 is ____.
3.09

Fill in the blank: the reported pIC50 of Cc1ccc(-n2cc(C3(O)CCCCC3)nn2)c(Cl)c1 is ____.
3.44

Fill in the blank: the reported pIC50 of Cc1ccc(C2CC(c3ccccc3O)=Nc3ccccc3S2)cc1 (stereo unspecified) is ____.
4.92

Fill in the blank: the reported pIC50 of O=C(/C=C/c1ccccc1O)c1ccccc1O is ____.
4.31

Fill in the blank: the reported pIC50 of CC(=O)c1ccc(-n2cc(C3(O)CCCCC3)nn2)cc1 is ____.
2.81

Fill in the blank: the reported pIC50 of OC1(c2cn(-c3cccc(Cl)c3)nn2)CCCCC1 is ____.
2.86

Fill in the blank: the reported pIC50 of c1ccc(C2=Nc3ccccc3SC(c3ccccc3)C2)cc1 (stereo unspecified) is ____.
4.48

Fill in the blank: the reported pIC50 of CC(=O)c1cccc(-n2cc(-c3ccccc3)nn2)c1 is ____.
3.58

Fill in the blank: the reported pIC50 of CC(=O)c1cccc(-n2cc(C3(O)CCCCC3)nn2)c1 is ____.
3.49

Fill in the blank: the reported pIC50 of COC(=O)Cn1cc(C2(O)CCCCC2)nn1 is ____.
3.59

Fill in the blank: the reported pIC50 of O=[N+]([O-])c1ccccc1-n1cc(-c2ccccc2)nn1 is ____.
2.17

###

Field: IC50. Provide a value for each of the compounds that follow.

Request body: readout IC50, system Cholinesterase (Homo sapiens, UniProt P06276), query CCCCCCCCCCCCCCCCn1cc(-c2ccccc2)nn1 . Return the value.
454 µM

Request body: readout IC50, system Cholinesterase (Homo sapiens, UniProt P06276), query c1ccc(C2=Nc3ccccc3SC(c3cccs3)C2)cc1 (configuration not stated) . Return the value.
9.1 µM

Request body: readout IC50, system Cholinesterase (Homo sapiens, UniProt P06276), query OC1(c2cn(-c3ccc(Cl)cc3)nn2)CCCCC1 . Return the value.
294 µM

Request body: readout IC50, system Cholinesterase (Homo sapiens, UniProt P06276), query COc1ccccc1/C=C/C(=O)c1ccccc1 . Return the value.
27 µM

Request body: readout IC50, system Cholinesterase (Homo sapiens, UniProt P06276), query O=[N+]([O-])c1ccc(-n2cc(C3(O)CCCCC3)nn2)cc1 . Return the value.
409 µM

Request body: readout IC50, system Cholinesterase (Homo sapiens, UniProt P06276), query Clc1ccccc1-n1cc(-c2ccccc2)nn1 . Return the value.
41.3 µM

Request body: readout IC50, system Cholinesterase (Homo sapiens, UniProt P06276), query OC1(c2cn(-c3cccc(Cl)c3)nn2)CCCCC1 . Return the value.
512 µM

Request body: readout IC50, system Cholinesterase (Homo sapiens, UniProt P06276), query Cc1ccc(-n2cc(C3(O)CCCCC3)nn2)c(Cl)c1 . Return the value.
65.5 µM

Request body: readout IC50, system Cholinesterase (Homo sapiens, UniProt P06276), query OC1(c2cn(-c3ccncc3)nn2)CCCCC1 . Return the value.
385 µM

Request body: readout IC50, system Cholinesterase (Homo sapiens, UniProt P06276), query O=C(/C=C/c1ccccc1)c1ccccc1O [2'-HYDROXYCHALCONE] . Return the value.
84 µM

Request body: readout IC50, system Cholinesterase (Homo sapiens, UniProt P06276), query O=C(/C=C/c1ccccc1)c1ccccc1 . Return the value.
87 µM

Request body: readout IC50, system Cholinesterase (Homo sapiens, UniProt P06276), query COc1ccc(/C=C/C(=O)c2ccccc2)cc1 . Return the value.
42 µM
